Data provenance is the supplement of paper PMC8728848.

# testedSystem: Glc(b1-4)Glc
# assayRemarks: glycan array binding signal (z-score within array); higher = stronger binding
# studyConditions: glycan notation: IUPAC condensed, linker removed
This excerpt belongs to a sample that is enriched for the strongest signals.
Answer each item with its documented glycan array binding signal (z-score).
Just the number, please, no unit attached.

// query Need glycan array binding signal (z-score), item XCL (Xerocomus chrysenteron) (protein) MSYSITLRVYQTNRDRGYFSIVEKTVWHFANGGTWSEANGAHTLTQGGSGTSGVLRFLSTKGERITVAVGVHNYKRWCDVVTGLKPDETALVINPQYYNNGGRDYVREKQLAEYSVTSAIGTKVEVVYTVAEGNNLEANVIFS
// result -0.304

// query Moving on to Tectonin 2 (Laccaria bicolor) (protein) MPWKGISGSLSRISAGSVTNVWGVNAANNIYRYTGDDAKPWVQIPGALTDIGAAADGTVWGVNAAGNIYRYVWDSNHWTQIKGALKRISAGSRTNVWGVNAGGAIYRYTGDDANPWVQIPGVLSDIGAGADGTVWGVNAAGEIYRYTGDQGDPNHWVKIPGALSAISAGIKTNVWGVNSANNIYTSTGDDKNPWLGIGGSLVDIGAGTDGVVWGVNAGGGIYRWIRD
// result -0.277

// query Check LICBM33A (Lactococcus lactis), Q9CE94 (protein) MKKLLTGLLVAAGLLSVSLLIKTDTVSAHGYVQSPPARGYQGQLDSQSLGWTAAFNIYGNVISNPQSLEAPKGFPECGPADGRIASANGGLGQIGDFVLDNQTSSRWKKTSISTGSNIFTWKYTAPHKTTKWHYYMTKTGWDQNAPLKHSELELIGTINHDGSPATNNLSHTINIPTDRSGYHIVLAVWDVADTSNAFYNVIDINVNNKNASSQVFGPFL too.
// result -0.321

// query # repeat for ECL (Erythrina cristagalli), Q6YD91 (protein) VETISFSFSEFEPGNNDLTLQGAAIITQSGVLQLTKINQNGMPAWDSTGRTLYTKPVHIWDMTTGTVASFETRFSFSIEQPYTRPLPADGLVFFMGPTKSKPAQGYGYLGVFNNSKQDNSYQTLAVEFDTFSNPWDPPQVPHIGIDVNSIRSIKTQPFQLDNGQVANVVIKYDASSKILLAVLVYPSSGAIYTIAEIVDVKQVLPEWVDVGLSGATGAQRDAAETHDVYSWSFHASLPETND
// result -0.25

// query Would you mind doing Nc3LysM-2 (protein) AHVLQARQSVSCDFATAANTGDTCASFAAAWGITEAAFAKLNPGVSCPGNLIAGSEYCVIGTVSTGAPTTTKAATTSTTPPTTTTTTKATTLSTSTTSVSPTGPSPQMPSITSTCNKFYQVQSGDGCWSIEQAQGVSASDFMAWNKAVDAQCDNLWLGYYVCVGVKGGSSPPPTTTTKPASSSAPTPQMPNTVSNCKKFHKVVSGDGCWAIEQAAGISASDFAKWNPYVDAACDNLWLGYYVCIGV as well?
// result -1.11
